System: CYP2B6
Experiment: CYP2B6 enzyme induction assay in cryopreserved HepaRG cells (bupropion probe, LC/MS); note: key: 1=Positive=inducer; 0=Negative=non-inducer
Assay type: in vitro ADME, human
Conditions: HepaRG; Lab 2; batch 20
Structures can show the parent of a compound that is named as a salt.
Listed below: Assigned classification CYP2B6 values for each entry.
quantity_name: Assigned classification CYP2B6

{"compound": "COc1ccc2[nH]c([S+]([O-])Cc3ncc(C)c(OC)c3C)nc2c1 (stereo not shown)", "assay_system": "CYP2B6", "quantity_name": "Assigned classification CYP2B6", "measured_number": 0}
{"compound": "CO[C@H]1/C=C/O[C@@]2(C)Oc3c(C)c(O)c4c(O)c(c(/C=N/N5CCN(C)CC5)c(O)c4c3C2=O)NC(=O)/C(C)=C\\C=C\\[C@H](C)[C@H](O)[C@@H](C)[C@@H](O)[C@@H](C)[C@H](OC(C)=O)[C@@H]1C", "assay_system": "CYP2B6", "quantity_name": "Assigned classification CYP2B6", "measured_number": 1}
{"compound": "NC(=O)N1c2ccccc2C=Cc2ccccc21 [Carbamazepine]", "assay_system": "CYP2B6", "quantity_name": "Assigned classification CYP2B6", "measured_number": 1}
{"compound": "COCCc1ccc(OCC(O)CNC(C)C)cc1 (stereo not shown)", "assay_system": "CYP2B6", "quantity_name": "Assigned classification CYP2B6", "measured_number": 0}
{"compound": "O=C1NC(=O)C(c2ccccc2)(c2ccccc2)N1 [Phenytoin sodium]", "assay_system": "CYP2B6", "quantity_name": "Assigned classification CYP2B6", "measured_number": 1}
{"compound": "CC(C)NCC(O)c1ccc(NS(C)(=O)=O)cc1 (stereo not shown) [Sotalol hydrochloride]", "assay_system": "CYP2B6", "quantity_name": "Assigned classification CYP2B6", "measured_number": 0}
{"compound": "COc1ccccc1Oc1c(NS(=O)(=O)c2ccc(C(C)(C)C)cc2)nc(-c2ncccn2)nc1OCCO [Bosentan hydrate]", "assay_system": "CYP2B6", "quantity_name": "Assigned classification CYP2B6", "measured_number": 1}

* * *

Tested on: CYP1A2
Assay: CYP1A2 enzyme induction assay in cryopreserved HepaRG cells (phenacetin probe, LC/MS); for Assigned classification CYP1A2: key: 1=Positive=inducer; 0=Negative=non-inducer
Format: in vitro ADME, human
Conditions: HepaRG; Lab 1; batch 36
Counter-ions that a name gives are not always drawn.
quantity_name: Assigned classification CYP1A2

{"compound": "O=C1NC(=O)C(c2ccccc2)(c2ccccc2)N1 [Phenytoin sodium]", "assay_system": "CYP1A2", "quantity_name": "Assigned classification CYP1A2", "measured_number": 1}
{"compound": "NC(=O)N1c2ccccc2C=Cc2ccccc21 [Carbamazepine]", "assay_system": "CYP1A2", "quantity_name": "Assigned classification CYP1A2", "measured_number": 1}
{"compound": "COc1ccc2[nH]c([S+]([O-])Cc3ncc(C)c(OC)c3C)nc2c1 (stereo not shown)", "assay_system": "CYP1A2", "quantity_name": "Assigned classification CYP1A2", "measured_number": 1}
{"compound": "CO[C@H]1/C=C/O[C@@]2(C)Oc3c(C)c(O)c4c(O)c(c(/C=N/N5CCN(C)CC5)c(O)c4c3C2=O)NC(=O)/C(C)=C\\C=C\\[C@H](C)[C@H](O)[C@@H](C)[C@@H](O)[C@@H](C)[C@H](OC(C)=O)[C@@H]1C", "assay_system": "CYP1A2", "quantity_name": "Assigned classification CYP1A2", "measured_number": 1}
{"compound": "CC(C)NCC(O)c1ccc(NS(C)(=O)=O)cc1 (stereo not shown) [Sotalol hydrochloride]", "assay_system": "CYP1A2", "quantity_name": "Assigned classification CYP1A2", "measured_number": 0}
{"compound": "COc1ccccc1Oc1c(NS(=O)(=O)c2ccc(C(C)(C)C)cc2)nc(-c2ncccn2)nc1OCCO [Bosentan hydrate]", "assay_system": "CYP1A2", "quantity_name": "Assigned classification CYP1A2", "measured_number": 1}
{"compound": "COCCc1ccc(OCC(O)CNC(C)C)cc1 (stereo not shown)", "assay_system": "CYP1A2", "quantity_name": "Assigned classification CYP1A2", "measured_number": 0}

* * *

Assay: Solubility by visual inspection (DMSO stock solution and assay medium)
Assay type: physicochemical
Settings: Lab 5, visual observation, assay medium
quantity_name: PHH medium stability (µg/mL)

{"compound": "CC1(C)S[C@@H]2[C@H](NC(=O)Cc3ccccc3)C(=O)N2[C@H]1C(=O)O [Penicillin G sodium]", "quantity_name": "PHH medium stability", "measured_number": 40}
{"compound": "O=C1Nc2ccc(Cl)cc2[C@@](C#CC2CC2)(C(F)(F)F)O1", "quantity_name": "PHH medium stability", "measured_number": 40}
{"compound": "CO[C@H]1/C=C/O[C@@]2(C)Oc3c(C)c(O)c4c(c3C2=O)C2=NC3(CCN(CC(C)C)CC3)NC2=C(NC(=O)/C(C)=C\\C=C\\[C@H](C)[C@H](O)[C@@H](C)[C@@H](O)[C@@H](C)[C@H](OC(C)=O)[C@@H]1C)C4=O", "quantity_name": "PHH medium stability", "measured_number": 40}
{"compound": "O=C1NC(=O)C(c2ccccc2)(c2ccccc2)N1 [Phenytoin sodium]", "quantity_name": "PHH medium stability", "measured_number": 20}
{"compound": "OCc1c[nH]c2ccccc12", "quantity_name": "PHH medium stability", "measured_number": 20}

* * *

Tested on: CYP1A2
Experiment: CYP1A2 enzyme induction assay in cryopreserved HepaRG cells (phenacetin probe, LC/MS)
Assay type: in vitro ADME, human
Conditions: CYP1A2, HepaRG cells; Cmax/F2 >0.5 criterion
Where a name gives a salt, the structure may show the parent alone.
quantity_name: Prediction in vivo inducer

{"molecule": "O=C1NC(=O)C(c2ccccc2)(c2ccccc2)N1 [Phenytoin sodium]", "quantity_name": "Prediction in vivo inducer", "result": "Yes"}
{"molecule": "CO[C@H]1/C=C/O[C@@]2(C)Oc3c(C)c(O)c4c(O)c(c(/C=N/N5CCN(C)CC5)c(O)c4c3C2=O)NC(=O)/C(C)=C\\C=C\\[C@H](C)[C@H](O)[C@@H](C)[C@@H](O)[C@@H](C)[C@H](OC(C)=O)[C@@H]1C", "quantity_name": "Prediction in vivo inducer", "result": "Yes"}
{"molecule": "COc1ccc2[nH]c([S+]([O-])Cc3ncc(C)c(OC)c3C)nc2c1 (stereo not drawn)", "quantity_name": "Prediction in vivo inducer", "result": "No"}
{"molecule": "CC(C)NCC(O)c1ccc(NS(C)(=O)=O)cc1 (stereo not drawn) [Sotalol hydrochloride]", "quantity_name": "Prediction in vivo inducer", "result": "No"}
{"molecule": "NC(=O)N1c2ccccc2C=Cc2ccccc21 [Carbamazepine]", "quantity_name": "Prediction in vivo inducer", "result": "Yes"}
{"molecule": "COCCc1ccc(OCC(O)CNC(C)C)cc1 (stereo not drawn)", "quantity_name": "Prediction in vivo inducer", "result": "No"}

* * *

Test system: CYP3A4
Assay: CYP3A4 enzyme induction assay in cryopreserved HepaRG cells (midazolam probe, LC/MS); note: key: 1=Positive=inducer; 0=Negative=non-inducer
Type: in vitro ADME, human
Details: HepaRG; Lab 2; batch 36
Where a name gives a salt, the structure may show the parent alone.
Listed below: Assigned classification CYP3A4 values for each entry.

{"compound": "COc1ccc2[nH]c([S+]([O-])Cc3ncc(C)c(OC)c3C)nc2c1 (stereo not drawn)", "Assigned classification CYP3A4": 0}
{"compound": "NC(=O)N1c2ccccc2C=Cc2ccccc21 [Carbamazepine]", "Assigned classification CYP3A4": 1}
{"compound": "O=C1NC(=O)C(c2ccccc2)(c2ccccc2)N1 [Phenytoin sodium]", "Assigned classification CYP3A4": 1}
{"compound": "CC(C)NCC(O)c1ccc(NS(C)(=O)=O)cc1 (stereo not drawn) [Sotalol hydrochloride]", "Assigned classification CYP3A4": 0}
{"compound": "COCCc1ccc(OCC(O)CNC(C)C)cc1 (stereo not drawn)", "Assigned classification CYP3A4": 0}
{"compound": "COc1ccccc1Oc1c(NS(=O)(=O)c2ccc(C(C)(C)C)cc2)nc(-c2ncccn2)nc1OCCO [Bosentan hydrate]", "Assigned classification CYP3A4": 1}

* * *

System: CYP2B6
Experiment: CYP2B6 enzyme induction assay in cryopreserved HepaRG cells (bupropion probe, LC/MS); note: key: 1=Positive=inducer; 0=Negative=non-inducer
Type: in vitro ADME, human
Details: HepaRG; Lab 3; batch 20
Structures can show the parent of a compound that is named as a salt.

{"compound": "O=C1NC(=O)C(c2ccccc2)(c2ccccc2)N1 [Phenytoin sodium]", "Assigned classification CYP2B6": 1}
{"compound": "CC(C)NCC(O)c1ccc(NS(C)(=O)=O)cc1 (stereo not shown) [Sotalol hydrochloride]", "Assigned classification CYP2B6": 0}
{"compound": "COc1ccc2[nH]c([S+]([O-])Cc3ncc(C)c(OC)c3C)nc2c1 (stereo not shown)", "Assigned classification CYP2B6": 1}
{"compound": "NC(=O)N1c2ccccc2C=Cc2ccccc21 [Carbamazepine]", "Assigned classification CYP2B6": 1}
{"compound": "COCCc1ccc(OCC(O)CNC(C)C)cc1 (stereo not shown)", "Assigned classification CYP2B6": 0}
{"compound": "COc1ccccc1Oc1c(NS(=O)(=O)c2ccc(C(C)(C)C)cc2)nc(-c2ncccn2)nc1OCCO [Bosentan hydrate]", "Assigned classification CYP2B6": 0}
{"compound": "CO[C@H]1/C=C/O[C@@]2(C)Oc3c(C)c(O)c4c(O)c(c(/C=N/N5CCN(C)CC5)c(O)c4c3C2=O)NC(=O)/C(C)=C\\C=C\\[C@H](C)[C@H](O)[C@@H](C)[C@@H](O)[C@@H](C)[C@H](OC(C)=O)[C@@H]1C", "Assigned classification CYP2B6": 0}

Hello, the source for this data is paper PMC6718736, in case you need it.
